Measured values drawn from the Immune Epitope Database (IEDB) for this set.

molecular target: HLA-B*15:01; assay: IEDB peptide-MHC binding, purified MHC/competitive/fluorescence; bounds were set here for any values at or beyond the usual limits of such assays; conditions: source organism: Zaire ebolavirus
assayMetric: IC50

Query: Specify reported IC50 for the sequence shown: PVMNHKNKF
Response: ≥ 364 µM

Query: Indicate the recorded IC50 value for this sequence: LQVSDVDKL
Response: ≥ 75.8 µM

Query: Quote IC50 reported for VIILFQRTF please.
Response: ≥ 85.9 µM

Attention now shifts to the item below.
Query: Report measured IC50; entry is KLFLESGAV
Response: ≥ 81.3 µM

---

Kd listing for selected sequences.
biological target: HLA-A*26:02; experiment: IEDB peptide-MHC binding, purified MHC/competitive/fluorescence; filed as Kd, often an IC50 or EC50 that approximates it; bounds were set here for any values at or beyond the usual limits of such assays; details: source organism: Human immunodeficiency virus 1
Report the value in nM with no unit label.

Query: Indicate its recorded Kd; the sequence in question is GTEEIKSLY
Response: 1210

// moving on: another record for Kd
Query: Read the entry RSLFNTIATLY and write its reported Kd.
Response: 2150

---

target: HLA-A*24:02; experiment: IEDB peptide-MHC binding, purified MHC/competitive/radioactivity; filed as Kd, often an IC50 or EC50 that approximates it; bounds were set here for any values at or beyond the usual limits of such assays; settings: source organism: Mammarenavirus juninense
assayMetric: pKd
pKd here is simply -log10 of the concentration when that concentration is written in mol/L.

Query: Consider the sequence LDHVNTLHF and give its recorded pKd.
Response: 4.98

---

molecular target: HLA-A*68:01; assay: IEDB peptide-MHC binding, purified MHC/competitive/radioactivity; filed as Kd, often an IC50 or EC50 that approximates it; bounds were set here for any values at or beyond the usual limits of such assays; details: source organism: Dengue virus 1 Brazil/97-11/1997
Listed here are sequences together with their documented pKd.
Worth noting: pKd values are minus log10 of concentrations stated in mol/L.

Query: Entry LAMGIMMLK needs its pKd filled in; supply it.
Response: 7.69

Query: Give the measured pKd for RVIDPRRCLK
Response: 7.55

Query: Check the records and state pKd for VTFKTAHAK
Response: 7.36

Proceed to the following item.
Query: In one line, give reported pKd of the entry FTNMEVQLIR .
Response: 7.06

---

target: HLA-A*01:01; test: IEDB peptide-MHC binding, purified MHC/direct/fluorescence; filed as Kd, often an IC50 or EC50 that approximates it; bounds were set here for any values at or beyond the usual limits of such assays; settings: source organism: Vibrio vulnificus
assayMetric: Kd

Query: Complete the entry with Kd for LLTQSNAGF
Response: ≥ 20 µM

Next sequence, Kd to be filled in.
Query: Identify measured Kd corresponding to DFPIFNQRY
Response: ≥ 20 µM

---

target: HLA-A*02:01; experiment: IEDB peptide-MHC binding, purified MHC/competitive/fluorescence; filed as Kd, often an IC50 or EC50 that approximates it; bounds were set here for any values at or beyond the usual limits of such assays; details: source organism: Coxiella burnetii
pKd: −log10 of the molar value.
assayMetric: pKd

Query: Give a short answer stating reported pKd for KFFMVHSLK .
Response: ≤ 4.70

---

molecular target: HLA-B*08:01; experiment: IEDB peptide-MHC binding, purified MHC/direct/fluorescence; filed as Kd, often an IC50 or EC50 that approximates it; bounds were set here for any values at or beyond the usual limits of such assays; details: source organism: Vibrio cholerae V52
assayMetric: Kd

Query: Tell me Kd reported for RVHGATVFK
Response: ≥ 20 µM
